Each recorded value in this set is attributed to PubChem BioAssay (NCI).

- Tested on: SK-MEL-5 melanoma
- assay text: NCI tumour cell line growth inhibition, 48 h; in the data active means GI50 below about 0.43 µM; inactive means the rest
Outcome codes: active, inactive

- molecule: "CC(=O)C1=C(O)C=C2Oc3c(C(=O)/C=C/c4cc(Cl)cc(Cl)c4)c(O)c(C)c(O)c3[C@]2(C)C1=O"
  group: "active"
- molecule: "CC(=O)[CH-]C(=O)c1ccccc1.CC(=O)[CH-]C(=O)c1ccccc1.O=S(=O)([O-])c1cc([O-])c2c([O-])cc(S(=O)(=O)[O-])cc2c1.[Na+].[Zr+4]"
  group: "inactive"
- molecule: "Cc1cc(Nc2cc(N3CCN(C)CC3)nc(/C=C/c3ccccc3)n2)n[nH]1"
  group: "inactive"
- molecule: "C=CCC(N[C@@H](CO)c1ccccc1)c1cn(C(=O)OCC)c2ccccc12 (stereo partly drawn)"
  group: "inactive"
- molecule: "CCCCCCCCCCCCOC1C(CNC(=O)C2OC3OC(C)(C)OC3C2NC(=O)CN2CCN(c3ccc(OC)cc3)CC2)OC2OC(C)(C)OC21 (stereo not drawn)"
  group: "inactive"
- molecule: "Cc1ccc2c(=O)cc(-c3ccc4ccccc4c3)[nH]c2n1"
  group: "inactive"
- molecule: "O=C(O)C1[O][Sb][O]C(C(=O)O)C1O (stereo not drawn)"
  group: "inactive"
- molecule: "CCN(CC)CCCC(C)N/C(=C1\\C(=O)NC(=O)\\C1=C(/NC(C)CCCN(CC)CC)c1cccc(OC)c1)c1cccc(OC)c1 (stereo not drawn)"
  group: "inactive"

---

- Test system: HCT-116 colon
- assay text: NCI tumour cell line growth inhibition, 48 h

- molecule: "CC(C)COc1nc2c(c(=O)n(C)c(=O)n2C)n1C"
  operator: ">"
  TGI, µM: 100
- molecule: "CC1CCC2CC(=O)OC([C@@H]3C(=O)O[C@@H](C4=CCCC4)C4C(C)CCC43)C12 (stereo partly drawn)"
  operator: ">"
  TGI, µM: 100
- molecule: "Cc1ccc2c(=O)cc(-c3ccc4ccccc4c3)[nH]c2n1"
  operator: "="
  TGI, µM: 87.9
- molecule: "COc1ccc(/C=C2/SC(Nc3nc(-c4nc(NC5=NC(=O)/C(=C\\c6ccc(OC)cc6)S5)sc4C)c(C)s3)=NC2=O)cc1"
  operator: "="
  TGI, µM: 9.78
- molecule: "CC(=O)[C@H]1CCC2[C@@H]3CC=C4C[C@@H]([O-])CC[C@]4(C)C3CC[C@@]21C.CC(=O)[C@H]1CCC2[C@@H]3CC=C4C[C@@H]([O-])CC[C@]4(C)C3CC[C@@]21C.CC(=O)[CH-]C(=O)c1ccccc1.CC(=O)[CH-]C(=O)c1ccccc1.Cl.[Ti+4] (stereo partly drawn)"
  operator: ">"
  TGI, µM: 100
- molecule: "N[C@@H]1CCN(c2c(F)cc3c(=O)c(C(=O)O)cn4c3c2Oc2cc3c(ccc5ccccc53)cc2-4)C1"
  operator: "="
  TGI, µM: 18.5
- molecule: "COc1cc(C(=O)c2cnc(-c3cccc4[nH]ccc34)[nH]2)cc(OC)c1OC"
  operator: ">"
  TGI, µM: 100
- molecule: "COc1ccc2c(c1)/C(=C\\c1c(Cl)[nH]c3ccccc13)C(=O)N2"
  operator: "="
  TGI, µM: 10.8

---

- System: MDA-MB-231 breast
- assay text: NCI tumour cell line growth inhibition, 48 h; in the data active = GI50 below about 0.43 µM; inactive = the rest
Possible outcomes: TRUE for active, FALSE for inactive

- molecule: "CN1CCN(Cc2ccc(NC(=O)c3cncc(C#Cc4cnc(N)c5cccnc45)c3)cc2C(F)(F)F)CC1"
  group: "TRUE"
- molecule: "CSc1nc2c(c(=O)n1C)CN(C1CCCCC1)C(=O)C(c1ccccc1)N2 (stereo not drawn)"
  group: "FALSE"
- molecule: "CC(C)COc1nc2c(c(=O)n(C)c(=O)n2C)n1C"
  group: "FALSE"
